- Assay Overview: rescue of L929 cells from zVAD death – primary screen (AID 1377);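 note: 0% = zVAD with DMSO and 100% = DMSO alone without zVAD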
- Condition Context: L929 zVAD necroptosis rescue, ATP luminescence, 24 h, at 10 µM; with zVAD 60 µM unless noted
About 830 (0.38%) of roughly 220,000 compounds were called active.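 Rule for the calls: active = activation, scaled between plate controls, above about 75% (limit read from the data); inactive = activation under that limit.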 The list comes from a sample in which actives are over-represented; it also holds close analogues and randomly drawn compounds.
Outcome field: choose from active, inactive

These solved cases illustrate the format of a correct answer.
COc1cc2c(C(=O)N3CCN(C)CC3)c(CSc3ccccc3)n(C)c2cc1Br :: inactive
COc1ccc(-c2csc(Nc3ccc(O)cc3)n2)cc1 :: active
CCN(CC)CCNS(=O)(=O)c1ccc(/C=C/C(=O)O)cc1 :: inactive
Cc1ccc(CNC(=O)CCNS(=O)(=O)c2ccc(Br)s2)cc1 :: inactive
Cc1ccc(N2C(=O)C(CC(=O)Nc3cccc(F)c3)N(CCc3ccncc3)C2=O)cc1 (configuration not stated) :: inactive

Task: Assay result, entry Cc1cc(C)nc(-n2nc(C)cc2NC(=O)c2ccc(Br)o2)n1 — outcome?
Result: active

====

- Assay Overview: rescue of L929 cells from zVAD death – primary screen (AID 1377);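 note: 0% = zVAD with DMSO and 100% = DMSO alone without zVAD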
- Condition Context: L929 zVAD necroptosis rescue, ATP luminescence, 24 h, at 10 µM, active compounds read high; with zVAD 60 µM unless noted
About 830 (0.38%) of roughly 220,000 compounds were called active. This is one part of a sample in which actives are shown more often than they occur.
Measured viability rescue by item

CC1CCCCC1NC(=O)/C(C#N)=C/C=C/c1ccccc1[N+](=O)[O-] (stereo unspecified) :: 77% (active)
O=C(/C=C/c1ccccc1[N+](=O)[O-])OC1CCCCC1=O (stereo unspecified) :: -0.52% (inactive)
Cc1cc(-n2cnc(-c3cn(C)nc3C)n2)no1 :: 80.2% (active)
O=C(/C=C/c1ccccc1[N+](=O)[O-])NCC1CCCO1 (stereo unspecified) :: 1.4% (inactive)
CCOc1cccc2c1OC1(CCCCC1)N1N=C(c3cccnc3)CC21 (stereo unspecified) :: 1.15% (inactive)
COc1ccccc1N=Cc1c(O)c2ccccc2oc1=O :: -0.1% (inactive)
O=C(Nc1cccnc1)c1cc([N+](=O)[O-])ccc1Cl :: 13.3% (inactive)
c1ccc2c(c1)CSc1sccc1C2=C1CCNCC1 :: 1.55% (inactive)
CCOC(=O)/C(C#N)=C/c1ccc(N2CCCCC2)cc1 :: 68.5% (inactive)
Clc1ccc2nc(-c3ccccc3)nc(C(Cl)Cl)c2c1 :: 37.5% (inactive)

The measured viability rescue associated with CN=c1scc(-c2cc(OC)ccc2OC)n1/N=C/c1c(C)[nH]c2ccccc12 reads 3.26% [with zVAD 20 µM] (inactive)

====

- Assay Overview: rescue of L929 cells from zVAD death – primary screen (AID 1377);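 note: 0% = zVAD with DMSO and 100% = DMSO alone without zVAD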
- Condition Context: L929 zVAD necroptosis rescue, ATP luminescence, 24 h, at 10 µM; with zVAD 60 µM unless noted
Among all 220,000 compounds or so, about 830 (0.38%) were called active.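 The calls were made as follows: active = activation, scaled between plate controls, above about 75% (limit read from the data); inactive = activation under that limit.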 The sample as a whole holds a higher share of actives than the screen did.
I would appreciate it if you answered using one of these outcomes: yes (active), no (inactive)

COCCNC(=O)c1ccccc1NS(=O)(=O)c1ccc(C)c([N+](=O)[O-])c1 :: no
Cc1ccc(C)c(NC(=O)C2Cc3ccccc3CN2C(=O)OCc2ccccc2)c1 (centres undefined) :: no
COc1ccc(C(=O)NNC(=O)c2cnccn2)cc1[N+](=O)[O-] :: no
CC(=O)Nc1ccc(NC(=S)NC(=O)/C=C/c2ccccc2)cc1 :: yes
Oc1ccc(/C=N/Nc2ccc(C(F)(F)F)cn2)cc1O :: yes
O=C(Nc1ccccc1)Nc1ccc(C(F)(F)F)cn1 :: no
CC(=O)Nc1ccc(S(=O)(=O)NCC(=O)OCc2cc(=O)oc3ccc4ccccc4c23)cc1 :: no
COc1ccccc1/C=C/CN1CCC(CO)(Cc2ccccc2)CC1 :: no

Task: Any idea what this test logged for Cc1cccc(CSc2nc3c(c(=O)n2C)SCC3)c1 ?
Result: no

Task: Dear all, I need the recorded test outcome for Cc1ccccc1NC(=O)CSC1=NCCN1 , thank you.
Result: yes

Task: Please let me know the test result on file for CN(C(=O)CCn1c(=S)oc2ccccc21)C1CCCCC1 .
Result: no
